tested on: HEK-293; assay: MTT assay; format: cell-based, human; conditions: HEK-293, 48 h
METRIC: pIC50
# log scale: pIC50 equals minus log10 of the concentration in mol/L

Kindly state the measured pIC50 obtained for N.N.[Cl][Pt][Cl] [cisplatin] with HEK-293. 5.33

###

test system: LNCaP; test: MTT assay; type: cell-based, human; details: LNCaP, 48 h
METRIC: pIC50
# log scale: pIC50 equals minus log10 of the concentration in mol/L

Given the molecule N.N.[Cl][Pt][Cl] [cisplatin] , what is its reported pIC50? 4.59

###

Test system: Caco-2
Experiment: MTT assay
Type: cell-based, human
Conditions: 48 h; SI = IC50 on normal cells/IC50 on cancer cells
Experimental: Human cancer cell lines (MDA-MB-231, LNCaP, Caco-2) and a human healthy cell line (HEK-293) were obtained from the European Collection of Cell Cultures. […] and etoposid was used as positive controls under identical conditions. […] The absorbance (A) was measured spectrophotometrically at 540 nm by a Microplate Reader (SpectraMax i3x). […] calculated from graph. […]
METRIC: SI HEK-293/Caco-2
Answer as a number with no unit attached.

COMPOUND: O=Cc1ccc(OCc2cn(-c3ccc(Cl)c(Cl)c3)nn2)cc1O [Compound 3]
ASSAY_VALUE: 1.46

Now let's try a different one.
Given the compound COc1cc([C@@H]2c3cc4c(cc3[C@@H](O[C@@H]3O[C@@H]5CO[C@@H](C)O[C@H]5[C@H](O)[C@H]3O)[C@H]3COC(=O)[C@H]23)OCO4)cc(OC)c1O [etoposide] , what is its reported SI HEK-293/Caco-2? 1.1
